# assay.details: Inhibition of HCV 1a NS3/4A protease
# Design: species or system Hepatitis C virus subtype 1a
pKi: −log10 of the molar value.
parameter.measured: pKi

Q. Requested read-out: pKi. Entry: `COc1ccc(-c2nc(O[C@@H]3C[C@H]4C(=O)N[C@]5(C(=O)NS(=O)(=O)C6CC6)C[C@H]5/C=C\CCCCN(C)C(=O)[C@@H]4C3)c3ccc(OC)c(C)c3n2)cc1`
A. 9.22

P = COc1ccc2c(O[C@@H]3C[C@H]4C(=O)N[C@]5(C(=O)NS(=O)(=O)C6CC6)C[C@H]5/C=C\CCCCN(C)C(=O)[C@@H]4C3)nc(-c3ccccc3)nc2c1
Q = COc1ccc2c(O[C@@H]3C[C@H]4C(=O)N[C@]5(C(=O)NS(=O)(=O)C6CC6)C[C@H]5/C=C\CCCCN(C)C(=O)[C@@H]4C3)nc(-c3ccccc3)nc2c1C
R = COc1ccc2c(O[C@@H]3C[C@H]4C(=O)N[C@]5(C(=O)NS(=O)(=O)C6CC6)C[C@H]5/C=C\CCCCN(C)C(=O)N4C3)nc(-c3cccnc3)nc2c1C
Q. Write the entries in order, lowest recorded pKi first. Note for the reader: the ranking is given by listing the labels in the order requested.
A. R, P, Q
(R: 8.55, P: 9.40, Q: 10.00)

The origin of these recorded values is ChEMBL document CHEMBL1177781.
